Cited source for all entries: ChEMBL document CHEMBL1949530

- MEASURED TARGET: Fatty-acid amide hydrolase 1 (Rattus norvegicus)
- Sequence (P97612 whole entry): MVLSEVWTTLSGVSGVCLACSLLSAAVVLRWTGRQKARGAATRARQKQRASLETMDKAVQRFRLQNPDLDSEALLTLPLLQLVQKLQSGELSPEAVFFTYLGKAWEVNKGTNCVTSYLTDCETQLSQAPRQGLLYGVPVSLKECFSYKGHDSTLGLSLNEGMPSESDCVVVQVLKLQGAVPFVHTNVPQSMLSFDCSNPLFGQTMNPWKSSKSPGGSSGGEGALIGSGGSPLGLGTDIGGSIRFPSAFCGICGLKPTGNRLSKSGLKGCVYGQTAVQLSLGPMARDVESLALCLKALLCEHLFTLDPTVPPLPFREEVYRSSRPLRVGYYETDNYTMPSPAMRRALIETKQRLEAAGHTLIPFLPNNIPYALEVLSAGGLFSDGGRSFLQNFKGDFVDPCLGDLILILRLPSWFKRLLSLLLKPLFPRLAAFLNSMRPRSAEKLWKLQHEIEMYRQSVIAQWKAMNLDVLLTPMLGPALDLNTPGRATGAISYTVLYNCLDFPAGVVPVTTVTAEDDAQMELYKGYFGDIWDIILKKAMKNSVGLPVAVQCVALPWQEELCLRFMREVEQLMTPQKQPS
# note: exactly 4 µM is not below, so it is Criterion not met; use Criterion met for IC50 strictly under it

INSERT INTO measurements (molecule, group_label) VALUES
  ('O=C(N1CCCCC1)N1CC(OC(c2ccccc2)c2cccnc2)C1 (racemic)', 'Criterion met'),
  ('CCN(CC)C(=O)N1CC(OC(c2ccc(Cl)cc2)c2cccnc2Cl)C1 (racemic)', 'Criterion not met'),
  ('CN(Cc1ccccc1)C(=O)N1CC(O[C@H](c2ccc(Cl)cc2)c2cccnc2Cl)C1', 'Criterion not met'),
  ('O=C(N1CCC(F)(F)CC1)N1CC(OC(c2ccc(Cl)cc2)c2cccnc2Cl)C1 (racemic)', 'Criterion met'),
  ('Cn1cccc(C(OC2CN(C(=O)N3CCCCC3)C2)c2ccc(Cl)cc2)c1=O (racemic)', 'Criterion not met');
